Tested on: PPARg:RXRa 270nM:90nM, anti-RXR (NR concentration 270 nM, RXRa partner concentration 90 nM)
Assay: PBM binding z-score (relative to random genomic background probes); higher = stronger binding; sequences stand for … in GC…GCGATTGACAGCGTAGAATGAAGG
Use 2 as the dividing line for PBM binding z-score, with the line itself on the 1 side and lower values as 0.

{"columns": ["sequence.entry", "answer.label"],
 "data": [
  ["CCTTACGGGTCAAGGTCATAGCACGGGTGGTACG", 1],
  ["CGAACTACGTCAGAACAGGACAGTGAAGGATGAT", 0],
  ["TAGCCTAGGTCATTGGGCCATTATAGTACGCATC", 1],
  ["TTTCCAAGGTGAGCTGAGGTCGTTGATCCAACTC", 0],
  ["GGAACGAGAGCATTCGAGTTGATAGCATGGCGAT", 0],
  ["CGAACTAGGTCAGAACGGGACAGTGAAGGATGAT", 1],
  ["TCTAGTTGGTCACGGAGGTCACCCACGACGGGTA", 1],
  ["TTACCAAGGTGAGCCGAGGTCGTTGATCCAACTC", 0],
  ["TCATATAGGTAAATGCTAGGTAAAAGTCCGATCT", 1],
  ["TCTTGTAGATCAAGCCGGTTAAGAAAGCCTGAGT", 0],
  ["CCTACTGGGCCAAAGGTCATTCATTCCAATGCTC", 1],
  ["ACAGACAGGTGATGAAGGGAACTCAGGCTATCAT", 0],
  ["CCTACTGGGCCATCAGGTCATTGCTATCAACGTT", 1],
  ["TGAATGAGGTTAAAGATCGGGGAACGTGGCGTCG", 1],
  ["ATCGATAGGTCGACGAGGTGAGTATACACCGTTT", 0],
  ["ATCTATAGGTAAGACTCAGTTCAGTGAAGAACGC", 0],
  ["TATAGTTGGTCAAAGGTCACACACTCGAAATGCG", 1],
  ["GCTAGTTGGTGAGTAAAAGGTCACACACCGGTCG", 1],
  ["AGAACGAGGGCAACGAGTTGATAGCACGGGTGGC", 0],
  ["TCTATTAGTTGATAAGGGCAACCGAAACAGCGGA", 0],
  ["TCTTGTAGATCAAAGGATAAGAAAGCCGAAGCCT", 1],
  ["CCGACTGGGGCATAAAGTTACCATAAGCCAGCCC", 0],
  ["ATTTCTAGGTAAAGTTCAGTGAAAGATCGATAGA", 1],
  ["TTACCAAGGTGAGCAGAGGTCGTTGATCCAACTC", 1],
  ["CAAATTAGGTCAAGGTCAAAGTCGGTTTGTGCCA", 1],
  ["CGAACTCGGTCATCCAGGACAGTGAATACATTGA", 0]
]}

---

Tested on: PPARg:RXRa 270nM:90nM, anti-RXR (NR concentration 270 nM, RXRa partner concentration 90 nM)
Test: PBM binding z-score (relative to random genomic background probes); higher = stronger binding; sequences stand for … in GC…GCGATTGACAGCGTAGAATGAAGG

{"columns": ["sequence.entry", "PBM binding z-score"],
 "data": [
  ["GCTAGCAGGCCATCTGGGTCACTCAATGACGGGC", 1.36],
  ["CCTACTGGGCAATTCAGAGGTCATTGATCATATG", 2.06],
  ["ATCTCTAGGTAACAAGTTAAGTGAAAGAGAGGAC", 3.1],
  ["GCTGCTAGGCCAACTGATGGTCAGCTAAAGCTCG", -0.849],
  ["GCAACGAGGGCAAGTTGATAGCAGAGTTTGATGG", 1],
  ["CGAACTAGGTCAGAACATGACAGTGAAGGATGAT", 4.49],
  ["GCTTACGGGTCAAAGATTATAGCATGAATAGAAT", 6.09],
  ["CTCGAGAGGTCGTGCTCAGGTGAGTATACCAAAC", 2.21],
  ["GCTGCTAGGTCAACTGATGGTCAGCTGAAGCTCG", 2.86],
  ["TCATATAGGTAAACGCTAGGTGAAAGTCCGATCT", 2.43],
  ["TCTCGGAGGACACGAAAGGTCAGAGATCGACATC", 2.75],
  ["CCTACTGGGCCATTCAGAGGTCATTGACCATATG", 3.37],
  ["GCTGCTAGGTCAACAGATGGTCAGCTAAAGCTCG", 2.5],
  ["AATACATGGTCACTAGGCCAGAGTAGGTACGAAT", 1.15],
  ["CAAACTAGGTCAGGAAAGGTCAAAGTCGAATGAC", 6.82],
  ["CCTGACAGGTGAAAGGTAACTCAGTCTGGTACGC", 6.09],
  ["CCGACTGGAGCAGAAAGGTTACCATACCATCCGG", 2.5],
  ["TCTTGTAGATCAAGCAGGTTAAGAAAGCCTGAGT", 1.21],
  ["TAGCCTAGGTCATTGGGCCAGTATCGTACGCATC", 3.52],
  ["TCTTGTAGACCAATAGAGGTTAAGAAAGTGCGCT", 1.69],
  ["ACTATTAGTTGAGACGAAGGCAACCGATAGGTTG", -0.4],
  ["CGTCCAAGGTCAAAGGACAGTGAAGAGATGACGG", 5.73],
  ["ATAGAAAGGTCGAGGTGAGTATAGAGAAAGGGAA", 3.43],
  ["TCTTGGAGGACACGAAGGTCAGAGCTTTCCAGAG", 2.2],
  ["CAGCCTAGATCAGGGCCAGTATAGGAGGAACGTT", -0.997],
  ["TAGCCTACGTCAGATCGGGCCAGTATACGCTATA", -0.86]
]}

---

Tested on: RARg:RXRa (NR concentration 270 nM, RXRa partner concentration 90 nM)
Assay: PBM binding z-score (relative to random genomic background probes); higher = stronger binding; sequences stand for … in GC…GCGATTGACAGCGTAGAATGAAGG
Use 2 as the dividing line for PBM binding z-score, with the line itself on the 1 side and lower values as 0.

{"columns": ["sequence.entry", "answer.label"],
 "data": [
  ["GGATCGAGGGCAAGTTGATAGCAGAGTTTGATGG", 0],
  ["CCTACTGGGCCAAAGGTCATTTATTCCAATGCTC", 1],
  ["GCGACTGGGGCAAAGCAGGTTATCATAAGGTTGG", 0],
  ["ATATGTAGTTTACATCCGGGTCATTCAGGCTATG", 0],
  ["AGAATGCGGTTATTAAGATCAGGGAATTGCGGTC", 0],
  ["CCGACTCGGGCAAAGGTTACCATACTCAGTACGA", 1],
  ["CCTAGCAGGCCAGGGTCACTGAAGCATTTCGCTT", 1],
  ["ATCTCTAAGTAACAAGTTCAGTGAAAGAGAGGAC", 0],
  ["TAGCCTAGGTCATGCGGGCCTGTATAGTGTCGGC", 1],
  ["TCTCGGAGTACACGAAGGTCAGAGCTTTCCAGAG", 1],
  ["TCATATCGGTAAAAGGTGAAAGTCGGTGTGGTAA", 0],
  ["AGAATGATGTTAAGATCAGGGAAACAGAATACAT", 0],
  ["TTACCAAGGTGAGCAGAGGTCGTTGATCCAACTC", 0],
  ["CCAGACAGGTGACAGGTAACTCAGTCTGGTACGC", 0],
  ["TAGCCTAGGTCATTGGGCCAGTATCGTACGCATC", 1],
  ["CATACTAGGTCACAGAGGTCAAAGTCCGTGCGTA", 1],
  ["TCTAGTTGGTCACGGAGGTCACACCCGACGGGTA", 1],
  ["ATCGAAAGTTCGTGAGGTGAGTATACAGAAAGGC", 1],
  ["TCTATTAGTTGACTAGGGCAACCGAAACAGCGGA", 0],
  ["CAAACTAAGTCACCGGAAGGTCAAAGTCCGCATG", 1],
  ["AATACAGGGTCATCGTAGGGCAGAGTACGCACAG", 1],
  ["GCAGACAGGTGAAACGCAAGTAACTCAGGGTGGC", 0]
]}

---

Tested on: FXR:RXRa (NR concentration 270 nM, RXRa partner concentration 90 nM)
Assay: PBM binding z-score (relative to random genomic background probes); higher = stronger binding; sequences stand for … in GC…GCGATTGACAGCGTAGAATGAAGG
# key: entry, value: PBM binding z-score

{"columns": ["sequence.entry", "PBM binding z-score"],
 "data": [
  ["CATACTGGGCCAAAAAGGTCATTGATGCCGATAA", 3.78],
  ["TCATATAGGTAATAGAGGTGAAAGTCGGCATCTA", 1.47],
  ["CCTACTGGGCTAAAAAGGTCATTGATGCCGATAA", 3.31],
  ["TAGCCTAGGTCATGCTGGCCAGTATAGTGTCGGC", 3.83],
  ["GCTTACGGGTCACAGGTTATAGCATGAATAGAAT", 6.03],
  ["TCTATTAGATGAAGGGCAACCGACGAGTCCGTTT", 0.734],
  ["TTACCAAGGTGAGCTGAGATCGTTGATCCAACTC", -0.243],
  ["CATCGGAGGACAGAAGGTCAGAGCTGTCCGCTTT", 1.15],
  ["GCTATTAGTTGAAAGGGCAACCGTATGATTCTCG", 0.693],
  ["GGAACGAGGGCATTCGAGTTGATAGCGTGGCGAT", 1.41],
  ["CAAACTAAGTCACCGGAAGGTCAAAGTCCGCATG", 3.59],
  ["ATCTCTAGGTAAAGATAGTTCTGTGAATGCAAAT", 0.34],
  ["AGAACGAGGGCACGCTGCGTTGATAGCAGAGTAG", 0.623],
  ["CTCGAAAGGTCGTGCTCAGGTAAGTATACCAAAC", 5.43],
  ["CGTCCAAGGTCAATGCTAGGTCAGTGAGAGCATT", 6.44],
  ["CGTCCAAGGGCATAGGAGGTCAGTGAAGACAGAT", 3.02],
  ["ACTAGCAGGCCAGGTTTGGGTCACTCAAACAAAG", -0.191],
  ["TAGCCTAGGTCACTGGGCCAGTATAGTACGCATC", 3.22],
  ["AGAACGATGGCACGCTGAGTTGATAGCAGAGTAG", -0.77],
  ["ATATGAAGGTTACATCCGGGTCATTCAGGCTATG", 2.82],
  ["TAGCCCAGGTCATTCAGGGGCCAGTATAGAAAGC", 5.03],
  ["GCAGACAGGTTAAACGCAGGTAACTCAGGGTGGC", 0.61],
  ["CCGACTGGGGCAGAACGGTTACCATACCATCCGG", -0.431],
  ["CGTCCAAGGTCATAGGAGGTCAGTGAGGACAGAT", 7.69],
  ["CGTCAAAGTTGAAGGTAACGTAACAGAAAGCAGC", -0.11],
  ["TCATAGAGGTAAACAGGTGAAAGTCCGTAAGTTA", 0.648],
  ["TCTATTAGTAGATTAGGGCAACCGAAACAGCGGA", 0.325],
  ["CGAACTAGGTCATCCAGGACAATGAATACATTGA", 4.61],
  ["CCTCGGAGGACAACAGGAGATCAGAGCTGCCAGA", -0.269],
  ["CGTCCAAGGTCAATGCTAGGTCGGTGAAAGCATT", 5.99],
  ["TCAGACAGGTGGAGGTAACTCAGGTACGCAGTCG", 0.494],
  ["ACAGACAGTTGAGTGAAGGTAACTCAGCTGGACG", 0.127],
  ["CAAACTAGCTCAAAGGTCAAAGTCGAGCCAACCA", 5.95],
  ["TGTCAAAGTTCAAAGGAAACGTAAGTATCCACAC", 6.34],
  ["TCTAGTTGGGCACGGAGGTCACACACGACGGGTA", 2.68],
  ["TAGCCTAGGTCAGATCGGGCCAGTAGACGCTATA", 2.39],
  ["CAAACTAGGTCACCGGAAGGTCAACGTCCGCATG", 6.21],
  ["CTCAAAAGGTCGTGCTCAGGTGAGTATACCAAAC", 5.46],
  ["CCGAGTGGGGCAGAAAGGTTACCATACCATCCGG", 0.579],
  ["CCGACTGGGGCAGAAGGTTACCATAAGCCAGCCC", -0.0856],
  ["CGTCCACGGTCATAGGAGGTCAGTGAAGACAGAT", 2.58],
  ["ACTCGGAGGACAAAGGGCAGAGCTACGCCAGTGA", 0.0109],
  ["TCTGCTAGGTCAGCTGGTCAGCTAACGAGCTGCC", 1.35],
  ["ATCTCTAGGTAAGGTTCAGTGAAAGATCGATAGA", 0.902],
  ["GATACAGGGTCAACGCCAGAGTACGCGTATTGAT", 7],
  ["CGAACTAGGTCAGAACAGGACCGTGAAGGATGAT", 0.998],
  ["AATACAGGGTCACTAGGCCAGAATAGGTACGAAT", 6.2],
  ["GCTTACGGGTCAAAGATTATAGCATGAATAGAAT", 5.74],
  ["TGAATGAGGTTAAAGAACAGGGAACGTGGCGTCG", 2.39],
  ["AATACAGGGTCATCGTAGACCAGAGTACGCACAG", 7.48],
  ["CCAGACAGGTGAGAAGGTGACTCAGCCTCGATTA", 0.0148]
]}
